Just for reference, patent US12344649B2 is where these values come from.

Each item that follows carries a reported Emax.
Molecular target: PTHR1 (Homo sapiens, UniProt Q03431)
Sequence (Q03431 27-593): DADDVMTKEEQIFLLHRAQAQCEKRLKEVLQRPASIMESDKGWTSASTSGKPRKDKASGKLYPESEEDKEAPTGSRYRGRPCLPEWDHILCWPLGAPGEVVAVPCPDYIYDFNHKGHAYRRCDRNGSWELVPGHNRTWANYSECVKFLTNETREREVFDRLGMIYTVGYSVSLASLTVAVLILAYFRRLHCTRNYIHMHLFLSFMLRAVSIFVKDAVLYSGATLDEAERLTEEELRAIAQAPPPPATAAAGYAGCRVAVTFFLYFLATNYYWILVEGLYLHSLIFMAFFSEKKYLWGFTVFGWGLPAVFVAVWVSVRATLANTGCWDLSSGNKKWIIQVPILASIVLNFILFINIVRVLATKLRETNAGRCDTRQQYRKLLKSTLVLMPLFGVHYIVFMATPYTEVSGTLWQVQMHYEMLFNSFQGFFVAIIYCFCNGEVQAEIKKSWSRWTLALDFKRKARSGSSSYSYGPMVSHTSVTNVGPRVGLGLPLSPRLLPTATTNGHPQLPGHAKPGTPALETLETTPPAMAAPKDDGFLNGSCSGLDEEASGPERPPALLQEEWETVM
Assay: cAMP accumulation assay (HTRF) in CHO-K1/Ga15/PTHR1 cells
Type: cell-based
Set-up: host or cells: CHO-K1 (recombinant line CHO-K1/Ga15/PTHR1)
Details: CHO-K1, cAMP assay; fitted dose-response maximum
Where no end group is shown, it is not given here.
recorded endpoint: Emax (%)

chain="AVAEIQLMHQRAKWELEFELFREFLKLLVDFF [Peptide R1-97]" recorded_number=99.3
chain="AVAEIQLMHQRAKWRAEYELREMLLRLLEEIF [Peptide R1-96]" recorded_number=99.7
chain="VDFEIQLMQQRAQWIADYRIREFLDKLIAEIF [Peptide R1-94]" recorded_number=90.8
chain="AVAEIQLMHQRAKWELEYELFEMFLKLLEEIF [Peptide R1-100]" recorded_number=99.9
chain="GVAMLQIMHDLAKIKQELELKDSMKKILEDVL [Peptide R2-50]" recorded_number=99.8
chain="GIAVITLMLLRAYLELLEELVKILHELLRRYH [Peptide R2-52]" recorded_number=97.4
chain="GIAVITLMVLRALLELQEIGRKITLELLKEYI [Peptide R2-51]" recorded_number=3.99
chain="AVAEIQLMHQRAKWKILEELLKILIDLLKQYI [Peptide R2-48]" recorded_number=98.8
chain="GVAELQLMHDLAKIKLELELKVKLLEILKDVY [Peptide R2-49]" recorded_number=99.9
